Target: NS3/4A protease gt 3a (Hepatitis C virus genotype 3a, UniProt Q81258)
Sequence (Q81258 1033-1663): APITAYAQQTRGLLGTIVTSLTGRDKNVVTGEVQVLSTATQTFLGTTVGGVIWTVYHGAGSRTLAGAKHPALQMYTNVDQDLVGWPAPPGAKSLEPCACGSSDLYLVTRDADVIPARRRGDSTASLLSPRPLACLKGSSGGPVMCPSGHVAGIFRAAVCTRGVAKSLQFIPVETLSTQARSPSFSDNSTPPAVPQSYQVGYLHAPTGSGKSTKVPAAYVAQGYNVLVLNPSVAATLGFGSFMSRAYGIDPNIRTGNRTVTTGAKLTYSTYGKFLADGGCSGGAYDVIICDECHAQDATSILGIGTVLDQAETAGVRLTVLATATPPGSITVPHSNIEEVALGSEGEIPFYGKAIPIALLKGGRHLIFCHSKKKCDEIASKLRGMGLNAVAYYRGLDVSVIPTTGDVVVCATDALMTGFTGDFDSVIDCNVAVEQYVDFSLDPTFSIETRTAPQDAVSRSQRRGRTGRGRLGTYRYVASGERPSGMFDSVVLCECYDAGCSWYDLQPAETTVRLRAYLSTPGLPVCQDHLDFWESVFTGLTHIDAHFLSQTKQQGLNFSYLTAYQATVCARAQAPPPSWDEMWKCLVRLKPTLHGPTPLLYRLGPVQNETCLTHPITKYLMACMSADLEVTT
Sequence (Q81258 1664-1717): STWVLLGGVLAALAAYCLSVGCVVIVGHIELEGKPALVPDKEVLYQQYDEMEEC
Assay: HCV NS3 protease time-resolved fluorescence (TRF) assay, NS3/4A inhibitory activity (Ki), gt 3a
Conditions: NS3/4A enzyme
quantity: pKi
Quick note: pKi means taking -log10 of the concentration in moles per liter.

Record excerpt, results attached:
structure.as.smiles: COc1ccc2nc3c(nc2c1)O[C@@H]1C[C@H]2C(=O)N[C@]4(C(=O)NS(=O)(=O)C5CC5)C[C@H]4/C=C\CCCCC[C@H](NC(=O)O[C@@H]4C[C@H]4CCCCC3)C(=O)N2C1
pKi: 9.62
//
structure.as.smiles: CC1(S(=O)(=O)NC(=O)[C@@]23C[C@H]2/C=C\CCCCC[C@@H]2NC(=O)O[C@@H]4C[C@H]4CCCCCc4nc5ccccc5nc4O[C@@H]4C[C@@H](C(=O)N3)N(C4)C2=O)CC1
pKi: 9.28

stdin: Form entry - test system: NS3/4A protease gt 3a (Hepatitis C virus genotype 3a, UniProt Q81258); read-out: pKi; compound: CC1(S(=O)(=O)NC(=O)[C@@]23C[C@H]2/C=C\CCCCC[C@@H]2NC(=O)O[C@]4(C)C[C@H]4CCCCCc4nc5ccccc5nc4O[C@@H]4C[C@@H](C(=O)N3)N(C4)C2=O)CC1
stdout: 9.43

====

// reported Ki for each item listed
Molecular target: NS3/4A protease gt 1b (Hepatitis C virus genotype 1b, UniProt P26663)
Experiment: HCV NS3 protease time-resolved fluorescence (TRF) assay, NS3/4A inhibitory activity (Ki), gt 1b
Conditions: NS3/4A enzyme
Entry rule: numbers only, all in nM.

structure.as.smiles: COc1ccc2nc3c(nc2c1)O[C@@H]1C[C@H]2C(=O)N[C@]4(C(=O)NS(=O)(=O)C5CC5)C[C@H]4/C=C\CCCCC[C@H](NC(=O)O[C@@H]4CCC[C@H]4CCCCC3)C(=O)N2C1
Ki [nM]: 0.16

stdin: Would you kindly share the measured Ki for COc1ccc2nc3c(nc2c1)O[C@@H]1C[C@H]2C(=O)N[C@]4(C(=O)NS(=O)(=O)C5(C)CC5)C[C@H]4/C=C\CCCCC[C@H](NC(=O)O[C@@H]4CCC[C@H]4CCCCC3)C(=O)N2C1 ?
stdout: 0.05

====

Test: Plasma and liver concentrations and pharmacokinetics (Rat PK)
Type: in vivo
Design: unit not given here
Settings: area under the plasma concentration/time curve
One threshold, 0.1, splits the recorded Rat PK 5 mpk AUC values: lower ones are met, equal or higher ones are not met.

compound: CC1(S(=O)(=O)NC(=O)[C@@]23C[C@H]2/C=C\CCCCC[C@@H]2NC(=O)O[C@@H]4C[C@H]4CCCCCc4nc5ccccc5nc4O[C@@H]4C[C@@H](C(=O)N3)N(C4)C2=O)CC1 [Example 9]
label: not met

compound: CC1(S(=O)(=O)NC(=O)[C@@]23C[C@H]2/C=C\CCCCC[C@@H]2NC(=O)O[C@]4(C)C[C@H]4CCCCCc4nc5ccccc5nc4O[C@@H]4C[C@@H](C(=O)N3)N(C4)C2=O)CC1 [Example 11]
label: met

compound: C[C@@]12C[C@H]1CCCCCc1nc3ccccc3nc1O[C@@H]1C[C@H]3C(=O)N[C@]4(C(=O)NS(=O)(=O)C5CC5)C[C@H]4/C=C\CCCCC[C@H](NC(=O)O2)C(=O)N3C1 [Example 10]
label: not met

compound: COc1ccc2nc3c(nc2c1)O[C@@H]1C[C@H]2C(=O)N[C@]4(C(=O)NS(=O)(=O)C5CC5)C[C@H]4/C=C\CCCCC[C@H](NC(=O)O[C@@H]4C[C@H]4CCCCC3)C(=O)N2C1 [Example 3]
label: not met

stdin: Is 0.1 strictly greater than the compound's reported Rat PK 5 mpk AUC? compound: COc1ccc2nc3c(nc2c1)O[C@@H]1C[C@H]2C(=O)N[C@]4(C(=O)NS(=O)(=O)C5CC5)C[C@H]4/C=C\CCCCC[C@H](NC(=O)O[C@]4(C)C[C@H]4CCCCC3)C(=O)N2C1 [Example 5]
stdout: not met

stdin: Is 0.1 strictly greater than the compound's reported Rat PK 5 mpk AUC? compound: O=C1N[C@H]2CCCCC/C=C\[C@@H]3C[C@@]3(C(=O)NS(=O)(=O)C3CC3)NC(=O)[C@@H]3C[C@H](CN3C2=O)Oc2nc3ccccc3nc2CCCCC[C@@H]2C[C@H]2O1 [Example 8]
stdout: met

stdin: Is 0.1 strictly greater than the compound's reported Rat PK 5 mpk AUC? compound: COc1ccc2nc3c(nc2c1)O[C@@H]1C[C@H]2C(=O)N[C@]4(C(=O)NS(=O)(=O)C5(C)CC5)C[C@H]4/C=C\CCCCC[C@H](NC(=O)O[C@]4(C)C[C@H]4CCCCC3)C(=O)N2C1 [Example 6]
stdout: not met

stdin: Is 0.1 strictly greater than the compound's reported Rat PK 5 mpk AUC? compound: CC1(S(=O)(=O)NC(=O)[C@@]23C[C@H]2/C=C\CCCCC[C@@H]2NC(=O)O[C@@H]4CCC[C@H]4CCCCCc4nc5ccccc5nc4O[C@@H]4C[C@@H](C(=O)N3)N(C4)C2=O)CC1 [Example 7]
stdout: not met

stdin: Is 0.1 strictly greater than the compound's reported Rat PK 5 mpk AUC? compound: COc1ccc2nc3c(nc2c1)O[C@@H]1C[C@H]2C(=O)N[C@]4(C(=O)NS(=O)(=O)C5(C)CC5)C[C@H]4/C=C\CCCCC[C@H](NC(=O)O[C@@H]4CCC[C@H]4CCCCC3)C(=O)N2C1 [Example 2]
stdout: not met

stdin: Is 0.1 strictly greater than the compound's reported Rat PK 5 mpk AUC? compound: COc1ccc2nc3c(nc2c1)O[C@@H]1C[C@H]2C(=O)N[C@]4(C(=O)NS(=O)(=O)C5CC5)C[C@H]4/C=C\CCCCC[C@H](NC(=O)O[C@@H]4CCC[C@H]4CCCCC3)C(=O)N2C1 [Example 1]
stdout: met
